system.name: UniProt:P18901
Sequence (P18901 whole entry): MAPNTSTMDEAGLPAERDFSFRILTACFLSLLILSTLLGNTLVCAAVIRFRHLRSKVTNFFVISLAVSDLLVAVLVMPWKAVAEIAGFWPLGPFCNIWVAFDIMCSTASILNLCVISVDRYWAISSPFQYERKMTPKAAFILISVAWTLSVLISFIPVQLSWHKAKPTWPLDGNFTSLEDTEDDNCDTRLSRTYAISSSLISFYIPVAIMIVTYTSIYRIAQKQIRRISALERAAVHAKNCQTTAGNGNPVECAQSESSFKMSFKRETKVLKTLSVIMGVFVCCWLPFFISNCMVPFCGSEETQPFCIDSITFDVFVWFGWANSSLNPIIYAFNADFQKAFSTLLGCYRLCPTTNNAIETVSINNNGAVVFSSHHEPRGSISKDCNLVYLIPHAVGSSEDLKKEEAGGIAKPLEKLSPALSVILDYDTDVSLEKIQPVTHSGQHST
assay.comment: Binding affinity for dopamine receptor D1, activity is expressed as IC50 values.
metric: IC50

CC(C)N1CCN(C2CC(c3ccc(F)cc3)c3ccc(Cl)cc32)CC1(C)C (single isomer, unassigned; (+))
52 nM
OCCN1CCN(C2CC(c3ccc(F)cc3)c3ccc(C(F)(F)F)cc32)CC1 (configuration not stated)
23 nM

Q: UniProt:P18901 / IC50 / CC1(C)CN(C2CC(c3ccc(F)cc3)c3ccc(Cl)cc32)CCN1CCCO (configuration not stated) : value?
Result: 1.1 nM

Q: For Cc1ccc2c(c1)C(N1CCN(CCO)CC1)CC2c1ccc(F)cc1 (configuration not stated) then?
Result: 51 nM

Q: For CC1CN(C2CC(c3ccc(F)cc3)c3ccc(Cl)cc32)C(C)CN1C (configuration not stated) then?
Result: 19 nM

Q: For CC1CN(C2CC(c3ccc(F)cc3)c3ccc(Cl)cc32)CC(C)N1C (configuration not stated) then?
Result: 13 nM

Q: For CC(C)c1ccc2c(c1)C(N1CCN(CCO)CC1)CC2c1ccc(F)cc1 (configuration not stated) then?
Result: 66 nM

Q: For CS(=O)(=O)c1ccc2c(c1)C(N1CCN(CCO)CC1)CC2c1ccc(F)cc1 (configuration not stated) then?
Result: 690 nM

Q: For CC1(C)CN(C2CC(c3ccsc3)c3ccc(Cl)cc32)CCN1 (stereo in doubt; (+)-54) then?
Result: 440 nM

Q: For CC(C)N1CCN(C2CC(c3ccc(F)cc3)c3ccc(Cl)cc32)CC1(C)C (single isomer, unassigned; (-)) then?
Result: 0.66 nM

* * *

Each entry below carries its reported IC50.
system.name: Adrenergic receptor alpha-1 (Rattus norvegicus, UniProt P15823+P23944+P43140)
assay.comment: Binding affinity against Alpha-1 adrenergic receptor, activity is expressed as IC50 values
Assay type: protein assay
Give the quantity in nM, number only.

CN1CCN(C2CC(c3ccc(F)cc3)c3ccc(F)cc32)CC1(C)C (stereo in doubt; (-)-40)
4.7
CN1CCN(C2CC(c3ccccc3)c3ccc(Cl)cc32)CC1(C)C (stereo in doubt; 38)
23
CC1(C)CN(C2CC(c3ccc(F)cc3)c3ccc(Cl)cc32)CCN1 (stereo in doubt; (-)-41)
12
CN1CCN(C2CC(c3ccc(F)cc3)c3ccccc32)CC1(C)C (stereo in doubt; (-)-39)
4.4

Please look at the following compound next.
Q: Quick one: IC50 for CN1CCN(C2CC(c3ccc(F)cc3)c3cccc(F)c32)CC1(C)C (stereo not given) ?
Result: 15

* * *

system.name: D(2) dopamine receptor (Rattus norvegicus, UniProt P61169)
Sequence (P61169 whole entry): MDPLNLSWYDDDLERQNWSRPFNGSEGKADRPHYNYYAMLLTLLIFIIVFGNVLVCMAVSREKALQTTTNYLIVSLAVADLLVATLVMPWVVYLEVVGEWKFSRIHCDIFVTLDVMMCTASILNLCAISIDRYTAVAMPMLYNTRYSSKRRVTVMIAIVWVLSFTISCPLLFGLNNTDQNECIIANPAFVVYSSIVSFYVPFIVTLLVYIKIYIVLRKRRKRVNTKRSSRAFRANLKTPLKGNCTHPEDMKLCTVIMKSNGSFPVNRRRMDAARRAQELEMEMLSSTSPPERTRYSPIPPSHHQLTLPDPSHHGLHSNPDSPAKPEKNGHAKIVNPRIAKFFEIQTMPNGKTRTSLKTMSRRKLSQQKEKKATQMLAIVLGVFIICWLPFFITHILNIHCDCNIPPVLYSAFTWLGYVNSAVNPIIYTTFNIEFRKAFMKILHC
assay.comment: Binding affinity against dopamine receptor D2
pIC50: −log10 of the molar value.
Kindly return 1 (yes) if reported pIC50 is no lower than 8; return 0 (no) if it is lower.

Use these answered entries as a reference point.
CN1CCN(C2CC(c3ccccc3)c3ccc(Cl)cc32)CC1 (stereo not given)
0 (no)
OCCN1CCN(C2CC(c3ccccc3)c3ccccc32)CC1 (stereo not given)
0 (no)
OCCN1CCN(C2CC(c3ccc(F)cc3)c3ccc(Cl)cc32)CC12CCCC2 (stereo in doubt; (-)-35)
1 (yes)
CC1(C)CN(C2CC(c3ccsc3)c3ccc(Cl)cc32)CCN1 (stereo in doubt; (+)-54)
0 (no)

Q: Is reported pIC50 greater than or equal to 8 here: CN1CCN(C2CC(c3ccc(F)cc3)c3ccccc32)CC1(C)C (single isomer, unassigned; (+))
Result: 0 (no)
